All figures here come from PubChem BioAssay AID1845195.

Test system: 156681-154-R-J1 tumor spheroid viability
Assay: Anticancer human tumor 156681-154-R-J1 patient-derived melanoma cell line growth inhibition
Conditions: second compound 0.003 µM; first compound 0.949 µM; stronger effect = lower value; spheroids with HUVEC and MSC
Listed below: viability, T/C values for each entry.

molecule	meas value
CNCc1ccc(-c2cc(-c3nc(-c4ccc(S(=O)(=O)C(C)C)cc4)cnc3N)on2)cc1 + COc1cc2c(cc1O)CCNC21CSC2c3c(OC(C)=O)c(C)c4c(c3C(COC1=O)N1C(O)C3Cc5cc(C)c(OC)c(O)c5C(C21)N3C)OCO4	0.12%

Hi! What's the reported viability, T/C for O=C(c1cc(Cc2n[nH]c(=O)c3ccccc23)ccc1F)N1CCN(C(=O)C2CC2)CC1 + COc1cc2c(cc1O)CCNC21CSC2c3c(OC(C)=O)c(C)c4c(c3C(COC1=O)N1C(O)C3Cc5cc(C)c(OC)c(O)c5C(C21)N3C)OCO4 on 156681-154-R-J1 tumor spheroid viability?
0.1%

Next: Cc1sc2c(c1C)C(c1ccc(Cl)cc1)=NC(CC(=O)Nc1ccc(O)cc1)c1nnc(C)n1-2 (stereo not drawn) + COc1cc2c(cc1O)CCNC21CSC2c3c(OC(C)=O)c(C)c4c(c3C(COC1=O)N1C(O)C3Cc5cc(C)c(OC)c(O)c5C(C21)N3C)OCO4
0.12%

###

# reported IC50; entries follow
Tested on: 156681-154-R-J1 tumor spheroid viability
Assay: Anticancer human tumor 156681-154-R-J1 cell line growth inhibition;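 note: spheroids exposed to compounds for 7 days before readout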
Details: curve of first compound; second compound 94.9 pM; spheroids with HUVEC and MSC
Just the number in µM, nothing appended.

compound	IC50 [µM]
COc1ccc([C@@H](O)c2cc(-c3ncnc4cc(N5CCOCC5)ccc34)c(F)cc2Cl)nn1 + COc1cc2c(cc1O)CCNC21CSC2c3c(OC(C)=O)c(C)c4c(c3C(COC1=O)N1C(O)C3Cc5cc(C)c(OC)c(O)c5C(C21)N3C)OCO4	5.11

Lab request: please report IC50 under test system 156681-154-R-J1 tumor spheroid viability for CC1COCCN1c1cc(-c2ccnn2C)c2ccnc(-c3ccn[nH]3)c2n1 (centres undefined) + COc1cc2c(cc1O)CCNC21CSC2c3c(OC(C)=O)c(C)c4c(c3C(COC1=O)N1C(O)C3Cc5cc(C)c(OC)c(O)c5C(C21)N3C)OCO4
0.104

###

System: 156681-154-R-J1 tumor spheroid viability
Assay: Anticancer human tumor 156681-154-R-J1 cell line growth inhibition;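 note: spheroids exposed to compounds for 7 days before readout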;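 for viability, T/C: percent of vehicle control viability where 100% = DMSO-treated spheroids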
Settings: second compound 0.0949 µM; first compound 3.16 µM; stronger effect = lower value; spheroids with HUVEC and MSC
reported property: viability, T/C (%)
Unit % implied. Number only.

Below, 2 molecules whose answers are already recorded.
molecule	reported property	scale unit	meas value
COc1cc(C)[nH]c(=O)c1CN1CCc2c(Cl)cc(C(OC)C3COC3)c(Cl)c2C1=O (stereo not drawn) + CC[C@@]1(O)C(=O)OCc2c1cc1n(c2=O)Cc2cc3c(CN(C)C)c(O)ccc3nc2-1	viability, T/C	%	32.5
CC(C)n1c(=O)n(C)c2cnc3cc(F)c(-c4ccc(OCCCN5CCCCC5)nc4)cc3c21 + CC[C@@]1(O)C(=O)OCc2c1cc1n(c2=O)Cc2cc3c(CN(C)C)c(O)ccc3nc2-1	viability, T/C	%	11.8

From here, focus on the item given below.
Need viability, T/C, item CC1COCCN1c1cc(-c2ccnn2C)c2ccnc(-c3ccn[nH]3)c2n1 (stereo not drawn) + CC[C@@]1(O)C(=O)OCc2c1cc1n(c2=O)Cc2cc3c(CN(C)C)c(O)ccc3nc2-1
26.7

###

Each item that follows carries a reported viability, T/C.
System: 156681-154-R-J1 tumor spheroid viability
Assay: Anticancer human tumor 156681-154-R-J1 cell line growth inhibition;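 note: spheroids exposed to compounds for 7 days before readout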;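 for viability, T/C: percent of vehicle control viability where 100% = DMSO-treated spheroids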
Settings: second compound 10 µM; first compound 1 µM; stronger effect = lower value; spheroids with HUVEC and MSC
Dear colleague, please return just the value in %, with no unit written.

Examples with answers:
compound	test target	viability, T/C [%]
Cc1cc(C)c(CNC(=O)c2cc(-c3ccc(CN4CCOCC4)cc3)cc3c2cnn3C2CCCC2)c(=O)[nH]1 + Cn1nnc2c(C(N)=O)ncn2c1=O	156681-154-R-J1 tumor spheroid viability	67.1
COc1ccc([C@@H](O)c2cc(-c3ncnc4cc(N5CCOCC5)ccc34)c(F)cc2Cl)nn1 + Cn1nnc2c(C(N)=O)ncn2c1=O	156681-154-R-J1 tumor spheroid viability	66.2
COc1cc(C)[nH]c(=O)c1CN1CCc2c(Cl)cc(C(OC)C3COC3)c(Cl)c2C1=O (stereo unspecified) + Cn1nnc2c(C(N)=O)ncn2c1=O	156681-154-R-J1 tumor spheroid viability	75.2
CC1COCCN1c1cc(-c2ccnn2C)c2ccnc(-c3ccn[nH]3)c2n1 (stereo unspecified) + Cn1nnc2c(C(N)=O)ncn2c1=O	156681-154-R-J1 tumor spheroid viability	19.2
CC(C)n1c(=O)n(C)c2cnc3cc(F)c(-c4ccc(OCCCN5CCCCC5)nc4)cc3c21 + Cn1nnc2c(C(N)=O)ncn2c1=O	156681-154-R-J1 tumor spheroid viability	72.4

Please turn your attention to the following entry.
Lab note: need viability, T/C with 156681-154-R-J1 tumor spheroid viability for entry [2H]c1nc(C)nc([2H])c1-c1cc(NC[C@@H](C)c2cccc3c(C(=O)NC)ccnc23)ncn1 + Cn1nnc2c(C(N)=O)ncn2c1=O , please look it up.
63.8

###

System: 156681-154-R-J1 tumor spheroid viability
Assay: Anticancer human tumor 156681-154-R-J1 cell line growth inhibition;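 note: spheroids exposed to compounds for 7 days before readout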
Settings: curve of first compound; second compound 94.9 pM; spheroids with HUVEC and MSC
reported property: pIC50
Kindly note that pIC50 refers to -log10 of the concentration in mol/L and answer with the value alone.

compound	pIC50
Cc1sc2c(c1C)C(c1ccc(Cl)cc1)=NC(CC(=O)Nc1ccc(O)cc1)c1nnc(C)n1-2 (stereo unspecified) + COc1cc2c(cc1O)CCNC21CSC2c3c(OC(C)=O)c(C)c4c(c3C(COC1=O)N1C(O)C3Cc5cc(C)c(OC)c(O)c5C(C21)N3C)OCO4	5.69
Cn1ncnc1[C@H]1c2n[nH]c(=O)c3cc(F)cc(c23)N[C@@H]1c1ccc(F)cc1 + COc1cc2c(cc1O)CCNC21CSC2c3c(OC(C)=O)c(C)c4c(c3C(COC1=O)N1C(O)C3Cc5cc(C)c(OC)c(O)c5C(C21)N3C)OCO4	6.16

Next compound, pIC50 to be filled in.
Reported pIC50 for CNCc1ccc(-c2cc(-c3nc(-c4ccc(S(=O)(=O)C(C)C)cc4)cnc3N)on2)cc1 + COc1cc2c(cc1O)CCNC21CSC2c3c(OC(C)=O)c(C)c4c(c3C(COC1=O)N1C(O)C3Cc5cc(C)c(OC)c(O)c5C(C21)N3C)OCO4 : what is it?
6.06

###

Test system: 156681-154-R-J1 tumor spheroid viability
Assay: Anticancer human tumor 156681-154-R-J1 cell line growth inhibition; active = viability on the fitted dose curve at most 10% of control; inactive = the rest;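 note: spheroids exposed to compounds for 7 days before readout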
Conditions: second compound 0.003 µM; first compound 10 µM; spheroids with HUVEC and MSC
Write down the outcome that applies. Available outcomes: active, inactive

compound	assigned category
CC(C)n1c(=O)n(C)c2cnc3cc(F)c(-c4ccc(OCCCN5CCCCC5)nc4)cc3c21 + CC[C@@]1(O)C(=O)OCc2c1cc1n(c2=O)Cc2cc3c(CN(C)C)c(O)ccc3nc2-1	inactive
COc1cc(C)[nH]c(=O)c1CN1CCc2c(Cl)cc(C(OC)C3COC3)c(Cl)c2C1=O (stereo not given) + CC[C@@]1(O)C(=O)OCc2c1cc1n(c2=O)Cc2cc3c(CN(C)C)c(O)ccc3nc2-1	inactive
[2H]c1nc(C)nc([2H])c1-c1cc(NC[C@@H](C)c2cccc3c(C(=O)NC)ccnc23)ncn1 + COc1cc2c(cc1O)CCNC21CSC2c3c(OC(C)=O)c(C)c4c(c3C(COC1=O)N1C(O)C3Cc5cc(C)c(OC)c(O)c5C(C21)N3C)OCO4	active
CC1COCCN1c1cc(-c2ccnn2C)c2ccnc(-c3ccn[nH]3)c2n1 (stereo not given) + COc1cc2c(cc1O)CCNC21CSC2c3c(OC(C)=O)c(C)c4c(c3C(COC1=O)N1C(O)C3Cc5cc(C)c(OC)c(O)c5C(C21)N3C)OCO4	active

Which outcome was assigned to [2H]c1nc(C)nc([2H])c1-c1cc(NC[C@@H](C)c2cccc3c(C(=O)NC)ccnc23)ncn1 + CC[C@@]1(O)C(=O)OCc2c1cc1n(c2=O)Cc2cc3c(CN(C)C)c(O)ccc3nc2-1 in this test?
inactive

###

Entries and their measured IC50 follow.
Test system: 156681-154-R-J1 tumor spheroid viability
Test: Anticancer human tumor 156681-154-R-J1 cell line growth inhibition;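 note: spheroids exposed to compounds for 7 days before readout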
Conditions: curve of first compound; second compound 0.003 µM; spheroids with HUVEC and MSC
Output spec: scalar in nM, unitless text.

molecule	meas value
CC1COCCN1c1cc(-c2ccnn2C)c2ccnc(-c3ccn[nH]3)c2n1 (stereo not given) + CC[C@@]1(O)C(=O)OCc2c1cc1n(c2=O)Cc2cc3c(CN(C)C)c(O)ccc3nc2-1	175
O=C(c1cc(Cc2n[nH]c(=O)c3ccccc23)ccc1F)N1CCN(C(=O)C2CC2)CC1 + CC[C@@]1(O)C(=O)OCc2c1cc1n(c2=O)Cc2cc3c(CN(C)C)c(O)ccc3nc2-1	21300

// IC50 lookup, key: Cc1sc2c(c1C)C(c1ccc(Cl)cc1)=NC(CC(=O)Nc1ccc(O)cc1)c1nnc(C)n1-2 (stereo not given) + CC[C@@]1(O)C(=O)OCc2c1cc1n(c2=O)Cc2cc3c(CN(C)C)c(O)ccc3nc2-1
1460
